Source listed as patent US20040053370A1.

tested_system: GLP-1 receptor
assay_procedure: cell-based or functional assay
Catalogue of GLP-1 Receptor Activation values

Request: // query GLP-1 Receptor Activation value for entry HVEGTFTSDVSSYLEEQAIKEFIAWLVKGRG [Val^8-Glu^22-Ile^25-GLP-1(7-37)OH]
Response: 1.46 fold of GLP-1(7-37)OH

Request: # get_value(readout='GLP-1 Receptor Activation', item= HVEGTFTSDYSSWLEEQAAKEFIAWLVKGRG [Val^8-Tyr^16-Trp^19-Glu^22-GLP-1(7-37)OH] )
Response: 1.64 fold of GLP-1(7-37)OH
